// data source = patent US20250250357A1

- study.system: T1, human MSLN on OVCAR3 tumor cells (human, UniProt Q13421 296-598)
- T1 construct: whole, on cells; also called human MSLN protein
- T1 sequence (Q13421 other isoform, or with tags, fused parts or gaps): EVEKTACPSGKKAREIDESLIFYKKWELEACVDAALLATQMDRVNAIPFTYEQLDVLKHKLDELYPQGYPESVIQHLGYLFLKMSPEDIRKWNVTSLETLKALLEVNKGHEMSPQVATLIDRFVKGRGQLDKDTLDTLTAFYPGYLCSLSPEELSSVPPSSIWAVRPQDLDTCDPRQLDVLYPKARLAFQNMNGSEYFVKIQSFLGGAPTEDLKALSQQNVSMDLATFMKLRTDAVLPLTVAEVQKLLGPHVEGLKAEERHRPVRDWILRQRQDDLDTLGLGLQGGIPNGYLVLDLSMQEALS
- protocol.notes: FACS, OVCAR3 cells
This section presents binders with their documented Maximum_MFI values.
Your answer should be a plain number; it is taken to be in MFI.

F7.33.24-H6 (scFv, not shown: small tags and cut ends, also called S009-F7.33.24 humanized antibody VH1a + VL3) scFv: EVQLVQSGAEVKKPGASVKVSCKASGYTFTSYWMHWVRQAPGQRLEWMGNVNPSSGGSNYNEKFKNRVTITVDKSASTAYMELSSLRSEDTAVYYCAPHYIGSRPGFAYWGQGTLVTVSSGGGGSGGGGSGGGGSDIVMTQTPLSLSVTPGQPASISCKASQNVGTNIAWYQQKPGQSPQALIYSASYRYSGVPDRFSGSGSGTDFTLKISRVEAEDVGVYYCQQYNSYPLTFGGGTKVEIK | 2300

Maximum_MFI lookup needed for F7.33.24-H2 (scFv, not shown: small tags and cut ends, also called S009-F7.33.24 humanized antibody VH1 + VL2) scFv: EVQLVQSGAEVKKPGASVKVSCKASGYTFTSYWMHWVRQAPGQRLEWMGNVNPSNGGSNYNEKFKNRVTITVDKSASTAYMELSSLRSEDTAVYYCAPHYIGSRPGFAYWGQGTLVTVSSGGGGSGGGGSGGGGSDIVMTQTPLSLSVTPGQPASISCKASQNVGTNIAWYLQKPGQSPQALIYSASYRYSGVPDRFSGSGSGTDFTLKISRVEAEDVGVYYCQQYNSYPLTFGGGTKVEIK , thanks. 2190

Maximum_MFI lookup needed for F7.33.24-H10 (scFv, not shown: small tags and cut ends, also called S009-F7.33.24 humanized antibody VH2a + VL1) scFv: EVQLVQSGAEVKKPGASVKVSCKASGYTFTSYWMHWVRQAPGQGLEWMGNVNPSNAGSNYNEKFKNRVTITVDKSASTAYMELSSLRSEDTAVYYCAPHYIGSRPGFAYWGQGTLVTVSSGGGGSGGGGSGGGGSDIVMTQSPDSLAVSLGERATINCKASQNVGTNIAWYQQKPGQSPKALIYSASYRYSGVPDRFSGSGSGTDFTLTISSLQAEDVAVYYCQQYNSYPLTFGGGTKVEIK , thanks. 2090
